target: UniProt:P56524; assay: Inhibition of HDAC4 (unknown origin)
Sequence (P56524 whole entry): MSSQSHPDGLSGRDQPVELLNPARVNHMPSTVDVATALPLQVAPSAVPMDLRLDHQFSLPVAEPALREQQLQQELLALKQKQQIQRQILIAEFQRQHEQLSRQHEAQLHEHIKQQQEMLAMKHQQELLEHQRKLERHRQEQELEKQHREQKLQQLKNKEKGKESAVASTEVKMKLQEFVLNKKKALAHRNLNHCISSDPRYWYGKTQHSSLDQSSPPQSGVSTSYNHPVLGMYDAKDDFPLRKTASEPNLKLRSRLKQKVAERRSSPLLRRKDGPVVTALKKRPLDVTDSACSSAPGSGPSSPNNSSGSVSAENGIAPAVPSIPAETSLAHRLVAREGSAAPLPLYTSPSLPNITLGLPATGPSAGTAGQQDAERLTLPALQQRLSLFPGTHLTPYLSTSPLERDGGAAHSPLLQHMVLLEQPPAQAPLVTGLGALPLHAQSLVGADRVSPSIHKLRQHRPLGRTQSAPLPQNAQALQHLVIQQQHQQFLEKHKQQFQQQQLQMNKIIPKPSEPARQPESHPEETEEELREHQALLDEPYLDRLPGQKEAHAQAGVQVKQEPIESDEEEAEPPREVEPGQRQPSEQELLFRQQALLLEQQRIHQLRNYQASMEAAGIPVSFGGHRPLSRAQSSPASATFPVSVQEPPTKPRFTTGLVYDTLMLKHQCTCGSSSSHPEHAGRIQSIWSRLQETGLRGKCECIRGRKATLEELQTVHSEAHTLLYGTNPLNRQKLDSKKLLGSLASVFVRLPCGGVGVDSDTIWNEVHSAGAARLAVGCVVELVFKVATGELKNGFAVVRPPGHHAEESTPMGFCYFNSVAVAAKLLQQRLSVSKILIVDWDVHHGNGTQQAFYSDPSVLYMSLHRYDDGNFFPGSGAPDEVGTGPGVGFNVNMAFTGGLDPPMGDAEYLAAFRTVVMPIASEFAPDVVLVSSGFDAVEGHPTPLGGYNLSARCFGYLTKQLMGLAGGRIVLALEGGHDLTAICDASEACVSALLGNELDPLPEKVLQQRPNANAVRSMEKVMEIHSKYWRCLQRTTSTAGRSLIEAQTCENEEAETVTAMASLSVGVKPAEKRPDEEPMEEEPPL
value type: IC50 (µM)
// note: answer is a bare numeric in µM

**Query** Find IC50 (UniProt:P56524) for the entry O=C(/C=C/c1cccc(S(=O)(=O)Nc2ccccc2)c1)NO [BELINOSTAT]
**Result** 1.24

---

biological target: Histone deacetylase 8 (Homo sapiens, UniProt Q9BY41); assay: Inhibition of human HDAC8 incubated for 90 mins by fluorescence assay
Sequence (Q9BY41 whole entry): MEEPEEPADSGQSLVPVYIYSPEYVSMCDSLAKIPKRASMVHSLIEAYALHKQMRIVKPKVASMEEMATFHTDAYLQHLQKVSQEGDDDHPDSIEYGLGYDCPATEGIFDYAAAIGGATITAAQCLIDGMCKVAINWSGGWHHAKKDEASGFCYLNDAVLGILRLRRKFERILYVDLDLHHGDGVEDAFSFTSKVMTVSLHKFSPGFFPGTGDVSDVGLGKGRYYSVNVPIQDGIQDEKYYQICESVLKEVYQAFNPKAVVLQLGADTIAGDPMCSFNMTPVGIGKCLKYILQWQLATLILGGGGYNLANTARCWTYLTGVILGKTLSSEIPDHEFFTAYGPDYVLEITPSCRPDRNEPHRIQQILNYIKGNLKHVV
value type: pIC50
# reply with the number alone; pIC50 is -log10 of concentration in mol/L

**Query** Please look up its pIC50: O=C(CS)NCCCCCC(=O)Nc1ccccc1
**Result** 3.70

---

molecular target: Protein deacetylase HDAC6 (Homo sapiens, UniProt Q9UBN7); assay: Inhibition of human full length recombinant HDAC6 expressed in baculovirus infected Sf9 cells using RHKKAc as substrate preincubated for 5 to 10 mins followed by substrate addition and measured after 2 hrs by fluorescence based analysis
Sequence (Q9UBN7 whole entry): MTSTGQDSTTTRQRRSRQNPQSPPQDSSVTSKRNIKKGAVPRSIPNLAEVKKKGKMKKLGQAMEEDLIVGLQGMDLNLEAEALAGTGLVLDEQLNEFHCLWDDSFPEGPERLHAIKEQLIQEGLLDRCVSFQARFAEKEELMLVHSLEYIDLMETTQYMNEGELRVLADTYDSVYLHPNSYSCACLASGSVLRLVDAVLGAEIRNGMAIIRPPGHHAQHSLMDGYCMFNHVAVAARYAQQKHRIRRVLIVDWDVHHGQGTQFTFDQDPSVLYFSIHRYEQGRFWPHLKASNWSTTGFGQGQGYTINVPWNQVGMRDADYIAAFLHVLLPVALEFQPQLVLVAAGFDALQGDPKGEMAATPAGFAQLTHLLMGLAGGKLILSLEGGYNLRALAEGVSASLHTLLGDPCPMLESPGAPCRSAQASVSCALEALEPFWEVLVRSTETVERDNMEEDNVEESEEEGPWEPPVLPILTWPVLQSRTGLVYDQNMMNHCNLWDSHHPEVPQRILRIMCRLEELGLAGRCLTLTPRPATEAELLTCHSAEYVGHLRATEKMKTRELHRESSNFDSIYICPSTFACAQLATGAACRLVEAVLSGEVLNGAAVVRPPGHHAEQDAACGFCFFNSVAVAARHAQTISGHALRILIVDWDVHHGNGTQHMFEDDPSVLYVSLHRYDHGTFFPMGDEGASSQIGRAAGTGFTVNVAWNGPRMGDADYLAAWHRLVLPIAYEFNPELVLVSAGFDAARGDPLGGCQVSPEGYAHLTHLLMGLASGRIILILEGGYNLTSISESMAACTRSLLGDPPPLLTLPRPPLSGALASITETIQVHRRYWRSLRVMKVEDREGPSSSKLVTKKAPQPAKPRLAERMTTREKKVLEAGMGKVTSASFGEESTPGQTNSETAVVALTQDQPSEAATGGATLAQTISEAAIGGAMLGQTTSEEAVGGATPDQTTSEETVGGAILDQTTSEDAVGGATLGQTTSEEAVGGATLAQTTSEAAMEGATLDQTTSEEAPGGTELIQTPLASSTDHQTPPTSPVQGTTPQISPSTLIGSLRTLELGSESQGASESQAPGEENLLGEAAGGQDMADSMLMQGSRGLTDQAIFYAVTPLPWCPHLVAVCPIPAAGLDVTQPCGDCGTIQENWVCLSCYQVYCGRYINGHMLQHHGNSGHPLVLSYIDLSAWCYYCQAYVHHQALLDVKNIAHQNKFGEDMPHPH
value type: IC50

**Query** Please look up its IC50: Cc1onc(-c2ccccc2)c1COCCCCCNC(=O)[C@H](C)S
**Result** > 30 µM

**Query** Please look up its IC50: Cc1onc(-c2ccccc2)c1C(=O)NCCCCCNC(=O)C(C)(C)S
**Result** > 30 µM

**Query** Please look up its IC50: Cc1noc(-c2ccccc2)c1C#CCCCCNC(=O)C(C)(C)S
**Result** > 30 µM

Where these numbers come from: ChEMBL document CHEMBL5226279
